Exercise: state measured %Inh for each of the compounds provided.
# Tested on: EIF2AK1
# recorded_conditions: concentration: 1 μM, replicates: in singlicate; n = 1;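 further: KINOMEscan kinase panel screen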
The response must be a number in % with no trailing unit.

// assay EIF2AK1, entry CC(C)c1nc(-c2cccc(NS(=O)(=O)c3c(F)cccc3F)c2F)c(-c2ccnc(Nc3ccc(N4CCOCC4)nc3)n2)s1 [GSK2008607] , %Inh value = 66

// assay EIF2AK1, entry c1ccc(-c2cnc3nccnn23)cc1 [AH20685] , %Inh value = 0

// assay EIF2AK1, entry O=C(Nc1n[nH]c2cc(-c3ccoc3)ccc12)C1CC1 [SB-738481] , %Inh value = 0

// assay EIF2AK1, entry O=C(Nc1cccc(Oc2ccc3nc(NC(=O)C4CC4)cn3n2)c1)c1ccccc1C(F)(F)F , %Inh value = 0

// assay EIF2AK1, entry CNC(=O)c1ccccc1Nc1nc(Nc2ccc(N3CCOCC3)cc2)ncc1Cl.Cl [GSK1576028] , %Inh value = 0

// assay EIF2AK1, entry Fc1ccc(-c2ncn(C3CCNCC3)c2-c2ccnc(Oc3ccc(-c4ccccc4)cc3)n2)cc1 [SB-245391] , %Inh value = 12

// assay EIF2AK1, entry CSc1cccc2c(-c3ccncn3)c(-c3ccc(F)cc3)nn12 [GW514786] , %Inh value = 0

// assay EIF2AK1, entry COc1cccc(-c2ccc3c(NC(=O)C4CC4)n[nH]c3n2)c1 [SB-710903] , %Inh value = 5

// assay EIF2AK1, entry CCCCc1nn2ncccc2c1-c1ccnc(Nc2ccc(N3CCN(C)CC3)cc2)n1 [GW684941] , %Inh value = 0

// assay EIF2AK1, entry Cl.Cl.NCC(NC(=O)c1cc(-c2ccccc2)c(-c2ccnc3[nH]ccc23)s1)c1ccccc1 (centres unmarked) [GSK1321561] , %Inh value = 0

// assay EIF2AK1, entry Cl.c1ccc(-c2ccc3c(Nc4ccc5[nH]ncc5c4)ccnc3c2)nc1 [GW440137] , %Inh value = 0

// assay EIF2AK1, entry CN1CCN(CCCNc2nccc(-c3c(-c4ccc(F)cc4)nn4cc(C(F)(F)F)ccc34)n2)CC1 [GW621581] , %Inh value = 0

// assay EIF2AK1, entry CCS(=O)(=O)c1ccc(OC)c(Nc2nccc(-c3c(-c4cccc(NC(=O)c5c(F)cccc5F)c4)nn4ncccc34)n2)c1 [GSK326180] , %Inh value = 0

// assay EIF2AK1, entry COCCOCCOc1cc2ncc3c4ccc(C#N)cc4[nH]c3c2cc1OC , %Inh value = 0

// assay EIF2AK1, entry CCn1c(-c2nonc2N)nc2c(C#CC(C)(C)O)ncc(OCCCCN)c21.O=C(O)C(F)(F)F.O=C(O)C(F)(F)F [GSK507274] , %Inh value = 27

// assay EIF2AK1, entry Cl.Cl.NCC(NCc1ccc(-c2ccnc3[nH]ccc23)s1)c1ccccc1 (centres unmarked) [GSK1321565] , %Inh value = 0

// assay EIF2AK1, entry Clc1ccc(-c2nn3ncccc3c2-c2ccnc(Nc3ccc4c(c3)OCCO4)n2)cc1 [GW829116] , %Inh value = 0

###

Exercise: state measured %Inh for each of the molecules provided.
# Tested on: PDGFRB
# recorded_conditions: concentration: 1 μM, replicates: in singlicate; n = 1
The response must be a number in % with no trailing unit.

// assay PDGFRB, entry O=C(Nc1cccc(-c2nn3ncccc3c2-c2ccnc(Nc3ccccc3)n2)c1)c1c(F)cccc1F [GSK198271] , %Inh value = 100

// assay PDGFRB, entry COC(=O)Nc1nc2ccc(Oc3ccc(NC(=O)Nc4cc(C(F)(F)F)ccc4F)cc3)cc2n1C.Cl [GW692089] , %Inh value = 100

// assay PDGFRB, entry O=C(NC1CCN(c2ccnc(Nc3ccc(F)cc3)n2)C1)c1cc2ccccc2s1 (centres unmarked) [GSK1379716] , %Inh value = 28

// assay PDGFRB, entry c1ccc(-c2cnc3nccnn23)cc1 [AH20685] , %Inh value = 23

// assay PDGFRB, entry Cl.Cl.NCC(C(=O)Nc1cc(Br)c(-c2ccnc3[nH]ccc23)s1)c1ccccc1 (centres unmarked) [GSK1269851] , %Inh value = 38

###

Exercise: state measured %Inh for each of the molecules provided.
# Tested on: RIPK4
# recorded_conditions: concentration: 1 μM, replicates: in singlicate; n = 1
The response must be a number in % with no trailing unit.

// assay RIPK4, entry c1ccc(Oc2ccc(Nc3ccnc4cc(-c5ccc(CNCCN6CCOCC6)o5)ccc34)cc2)nc1 , %Inh value = 0

// assay RIPK4, entry CCn1c(-c2nonc2N)nc2c(C#CC(C)(C)O)ncc(OCCCCN)c21.O=C(O)C(F)(F)F.O=C(O)C(F)(F)F , %Inh value = 0

// assay RIPK4, entry c1ccc(-c2cnc3nccnn23)cc1 , %Inh value = 0

// assay RIPK4, entry CNC(=O)c1ccccc1Nc1nc(Nc2ccc(N3CCOCC3)cc2)ncc1Cl.Cl , %Inh value = 79

// assay RIPK4, entry Nc1n[nH]c2cnc(-c3ccccc3)cc12 , %Inh value = 25

// assay RIPK4, entry Nc1ncnc2c1nc(-c1ccccc1)n2-c1ccccc1 , %Inh value = 27

###

# Test system: MUSK
# recorded_conditions: concentration: 1 μM, replicates: in singlicate; n = 1
measured_property: %Inh (%)
The response must be a number in % with no trailing unit.

For reference, reported %Inh for O=C(Nc1ccccc1F)NC1CCN(c2ccnc(Nc3ccc(F)cc3)n2)CC1 [GSK1379800] stands at 3

For reference, reported %Inh for O=C(Nc1cccc(-c2nn3ccccc3c2-c2ccnc(Nc3cccc(C(F)(F)F)c3)n2)c1)c1c(F)cccc1F [GSK292658] stands at 10

For reference, reported %Inh for Cc1ccc(C)c(NC(=O)NC2CCN(c3ccnc(Nc4ccc(F)cc4)n3)C2)c1 (stereo not shown) [GSK1379720] stands at 5

For reference, reported %Inh for O=C(O)C(F)(F)F.O=C(O)C(F)(F)F.O=c1[nH]ccc2nc(N[C@@H]3CCCNC3)nc(Nc3ccc(S(=O)(=O)N4CCOCC4)cc3)c12 [GSK2177277] stands at 98.2

###

Exercise: state measured %Inh for each of the molecules provided.
# System: PKMYT1
# recorded_conditions: concentration: 1 μM, replicates: in singlicate; n = 1
The response must be a number in % with no trailing unit.

For reference, reported %Inh for CN1CCN(Cc2cccc(-c3ccc4c(Nc5ccc(Oc6ccccc6)cc5)ccnc4c3)c2)CC1 [GW578342] stands at 0

For reference, reported %Inh for Cl.c1ccc(-c2ccc3c(Nc4ccc5[nH]ccc5c4)ccnc3c2)nc1 [GW440138] stands at 0

For reference, reported %Inh for CCCCc1nn2ncccc2c1-c1ccnc(Nc2ccc(N3CCN(C)CC3)cc2)n1 [GW684941] stands at 0

For reference, reported %Inh for CN(c1ccc(NC(=O)Nc2cc(C(F)(F)F)ccc2F)cc1)c1ccnc(Nc2ccc(S(N)(=O)=O)cc2)n1 [GW809893] stands at 1

For reference, reported %Inh for Clc1ccc(-c2nn3ncccc3c2-c2ccnc(Nc3ccc4c(c3)OCCO4)n2)cc1 [GW829116] stands at 2

For reference, reported %Inh for Cl.Cl.NCC(NC(=O)c1cc(-c2ccccc2)c(-c2ccnc3[nH]ccc23)s1)c1ccccc1 (centres unmarked) [GSK1321561] stands at 3

For reference, reported %Inh for O=C(Nc1cccc(Oc2ccc3nc(NC(=O)C4CC4)cn3n2)c1)c1ccccc1C(F)(F)F stands at 0

For reference, reported %Inh for COc1cccc(-c2ccc3c(NC(=O)C4CC4)n[nH]c3n2)c1 [SB-710903] stands at 8

For reference, reported %Inh for CSc1cccc2c(-c3ccncn3)c(-c3ccc(F)cc3)nn12 [GW514786] stands at 6

For reference, reported %Inh for COc1cc2c(cc1OCCN1CCNCC1)ncc1c3ccc(C#N)cc3[nH]c21 stands at 0

For reference, reported %Inh for COc1cccc(C(=O)Nc2cccc(Oc3ccc4nc(NC(=O)C5CC5)cn4n3)c2)c1 stands at 0

For reference, reported %Inh for Nc1n[nH]c2cnc(-c3ccccc3)cc12 [SB-642124] stands at 15

For reference, reported %Inh for COc1cc(Nc2ncc3c(C)nc(-c4cc5ccccc5[nH]4)n3n2)cc(OC)c1OC [GW869516] stands at 25

For reference, reported %Inh for Cc1ccc(C)c(NC(=O)NC2CCN(c3ccnc(Nc4ccc(F)cc4)n3)C2)c1 (centres unmarked) [GSK1379720] stands at 5

For reference, reported %Inh for Cl.NC(=O)c1cccc(Nc2nccc(Nc3ccc(Oc4c(Cl)cccc4Cl)c(Cl)c3)n2)c1 [GW659009] stands at 0

For reference, reported %Inh for COc1ccc(Nc2nccc(NCCNC(=O)c3cc4ccccc4s3)n2)cc1 [GSK1379896] stands at 0

For reference, reported %Inh for O=C(Nc1cccc(-c2nn3ccccc3c2-c2ccnc(Nc3cccc(F)c3)n2)c1)c1c(F)ccc(F)c1Cl [GSK357952] stands at 5
